Each recorded value in this set is attributed to patent US8017348B1.

pIC50 by entry:
- System: Parkin
- ASSAY_EXPLANATION: GFPu assay in HEK293 cells transfected with wild type Parkin (aggresome formation / proteasome function)
- Format: cell-based, human
- MEASUREMENT_PARAMETERS: Homo sapiens, Parkin expressing HEK293 cells; read-out: IC50 in the GFPu assay
pIC50: −log10 of the molar value.

[
  {
    "COMPOUND": "O=C1c2c(O)ccc(O)c2C(=O)c2c(NCCNCCO)ccc(NCCNCCO)c21",
    "pIC50": "> 7.11"
  },
  {
    "COMPOUND": "CN(Cc1cnc2nc(N)nc(N)c2n1)c1ccc(C(=O)N[C@@H](CCC(=O)O)C(=O)O)cc1 [ELN476809, methotrexate]",
    "pIC50": "> 7.11"
  },
  {
    "COMPOUND": "Nc1ncn([C@@H]2O[C@H](CO)[C@@H](O)[C@H]2O)c(=O)n1",
    "pIC50": 5.27
  },
  {
    "COMPOUND": "CC(=O)O[C@H]1C(=O)[C@@]2(C)[C@H]([C@H](OC(=O)c3ccccc3)[C@]3(O)C[C@H](OC(=O)[C@H](O)[C@@H](NC(=O)c4ccccc4)c4ccccc4)C(C)=C1C3(C)C)[C@]1(OC(C)=O)CO[C@@H]1C[C@@H]2O",
    "pIC50": "> 7.11"
  },
  {
    "COMPOUND": "COC[C@H]1OC(=O)c2coc3c2[C@@]1(C)C1=C(C3=O)[C@@H]2CCC(=O)[C@@]2(C)C[C@H]1OC(C)=O",
    "pIC50": 6.12
  }
]

Field: next compound
// query Request body: readout pIC50, system Parkin, query COc1cc([C@@H]2c3cc4c(cc3[C@H](O)[C@H]3COC(=O)[C@H]23)OCO4)cc(OC)c1OC . Return the value.
// result > 7.11
